System: UACC-62 melanoma
Assay: NCI-60 one-dose screen, 48 h
Details: 10 µM unless noted
This is part of a sample that, as a whole, favours compounds with a hit. Of some 83,000 tested, about 20% had one in any assay. Active and inactive are the calls of the source. How the source made its calls: active means growth percent below 10; inactive means the rest.
API: response.call in 1 for active, 0 for inactive

{"Compound": "C=CC(=O)Nc1cccc(-c2nc(SC)nc(Nc3ccccc3OC)c2C#N)c1", "Study System": "UACC-62 melanoma", "Label Value": 0}
{"Compound": "CC1=C(O)C(=O)C(C(C#N)(C#N)C(C#N)C#N)C1 (centres undefined)", "Study System": "UACC-62 melanoma", "Label Value": 0}
{"Compound": "O=C1/C(=C(/c2ccccc2)N2CCOCC2)Cc2ccccc21", "Study System": "UACC-62 melanoma", "Label Value": 0}
{"Compound": "Cc1ccc2c(C(C[N+](=O)[O-])c3ccco3)c(-c3ccccc3)[nH]c2c1 (centres undefined)", "Study System": "UACC-62 melanoma", "Label Value": 0}
{"Compound": "COC(=O)c1ccc(Cn2cnc3c(N)ncnc32)cc1", "Study System": "UACC-62 melanoma", "Label Value": 0}

Query: recorded result category for Cc1ccc2c(C(C[N+](=O)[O-])c3ccccc3F)c(-c3ccccc3)[nH]c2c1 (centres undefined) in this test
0

How was `Clc1ccc2c(NCCNc3nc(N4CCCCC4)nc4ccccc34)ccnc2c1` classified in this test?
1

Hi, sorry to bother you, what did the test record for `O=S(=O)(Nc1ccc(NS(=O)(=O)c2ccccc2)c(Cl)c1)c1ccccc1` ?
0

// outcome(item) with item = `O=C(Nc1cccc2[nH]c(C(F)(F)F)nc12)c1ccc(-n2cnnn2)cc1`
0

What call does the record list for `CCNC(=O)Oc1ccc(/C(=C(\C)c2ccc(Cl)cc2)c2ccc(OCCN3CCCCC3)cc2)cc1` ?
1

Identify the outcome logged in this assay for the compound shown: `O=C(N/N=C/c1c[nH]c2ccccc12)c1cc(-c2ccccc2)on1`
0

Per the records of this test, what outcome belongs to `C=CC(=O)Nc1cccc(-c2nc(SC)nc(Nc3cccc(OC)c3)c2C#N)c1` ?
0

Record lookup: outcome of this test for `COc1ccc(/C=C/C(=O)c2ccc(O)c(CN3CCN(c4cc5c(cc4F)c(=O)c(C(=O)O)cn5C4CC4)CC3)c2)cc1` ?
0

What call does the record list for `Cc1cc(C)nc(SC2=C(Nc3cccc(Cl)c3)C(=O)N(Cc3ccccc3)C2=O)n1` ?
0

I'd appreciate the recorded outcome for `O=S(=O)(Nc1ccc(Cl)c(F)c1)c1ccc(-c2cnc(C3CC3)o2)cc1` from this test.
0

Outcome? `COc1cccc(-c2nn(C(C)(C)C)cc2-c2ccnc(NCCCNS(=O)(=O)c3ccc(C)cc3)c2)c1`
0

Write down the call the test reported for this compound. Item: `COc1ccc(-n2nc(C)c3c(Nc4ccc(NC(=O)Nc5c(Cl)cccc5Cl)cc4)ncnc32)cc1`
0

# fetch the recorded call for `O=C(/C=C/c1cccc([N+](=O)[O-])c1)c1ccc(O)c(CN2CCN(c3cc4c(cc3F)c(=O)c(C(=O)O)cn4C3CC3)CC2)c1` here
0

Look up the recorded call for `COc1ccc(-c2nc3cc(C(=O)Nc4cc(OC)c(OC)c(OC)c4)ccc3n2C2CCCCC2)cc1` in this test.
0

====

Tested on: CAKI-1 renal
Test: NCI-60 one-dose screen, 48 h (100 = growth as untreated, 0 = no growth, -100 = all killed)
Conditions: 10 µM unless noted
About 83,000 compounds went through this panel and 20% of them were active in at least one assay; those are over-represented in the sample as a whole.
Note that class boundaries on growth are lower bin (below 10%), middle bin (10% to below 90%), upper bin (90% or more)

Worked cases, answers included:
{"Molecule": "COc1cc2c(cc1-c1c(C)noc1C)ncc1nc(C3CCOCC3)n([C@@H](C)COC(F)F)c12", "Label Value": "lower bin"}
{"Molecule": "COc1cccc(/C=N/NC(=O)c2ccccc2Nc2ccnc(C(F)(F)F)c2)c1O", "Label Value": "lower bin"}

Please classify: `O=[N+]([O-])c1ccc2c(c1)Cc1cc(F)ccc1-2`
upper bin

Which band does `COc1cc(Nc2cc(C)nc(N3CCN(c4ccnc5cc(Cl)ccc45)CC3)n2)cc(OC)c1` fall in?
middle bin

Consider Nc1n[nH]c2ccc([C@@H]3Nc4ccc5cn[nH]c5c4[C@H]4C5CCC(C5)[C@@H]34)cc12 (some centres undefined) . To which growth class does it belong?
middle bin

Data provenance: PubChem BioAssay (NCI)
